Hello, the source for this data is paper PMC11062899, in case you need it.

Assay: Metabolic stability in rat liver microsomes (RLMs)
Conditions: rat, rat liver microsomes, pH 7.4, RLM CL, individual replicates R1-R3, incubation volume 400 ul, protein 0.5 mg/ml
measured_parameter: microsomal CLint at 10 μM (µL/min/mg)
One number for each entry, in µL/min/mg.

Identify microsomal CLint at 10 μM associated with the molecule COc1ccc([C@@H]2Sc3ccccc3N(CCN(C)C)C(=O)[C@@H]2OC(C)=O)cc1 [Diltiazem, diltiazem, reference compound] 93

###

Assay: Metabolic stability in rat liver microsomes (RLMs)
Details: rat liver microsomes, 15 min, replicate R1
measured_parameter: TIC value of compound, 15 min, R1
Numbers only.

[[record]]
molecule = "O=C1CSCCC[C@H](NC(=O)c2ccc(Cl)s2)C(=O)N[C@@H](Cc2ccccc2)C(=O)N2CCC[C@@H]2CC(=O)NCCSC1"
measurement = 4635928

[[record]]
molecule = "O=C1C[C@H]2CCCN2C(=O)[C@H](Cc2ccccc2)NC(=O)[C@@H](NC(=O)c2ccc(Cl)s2)CSCc2cccc(n2)CSCCN1"
measurement = 14173175

[[record]]
molecule = "O=C1C[C@H]2CCCN2C(=O)[C@H](Cc2ccccc2)NC(=O)[C@@H](NC(=O)c2ccc(Cl)s2)CCSCc2cccc(n2)CSCCN1"
measurement = 13918481

[[record]]
molecule = "O=C1C[C@H]2CCCN2C(=O)[C@H](Cc2ccccc2)NC(=O)[C@@H](NC(=O)c2ccc(Cl)s2)CSC/C=C/CSCCN1 [peptide 32]"
measurement = 283425

[[record]]
molecule = "O=C1C[C@H]2CCCN2C(=O)[C@H](Cc2ccccc2)NC(=O)[C@@H](NC(=O)c2ccc(Cl)s2)CCCSCc2cccc(n2)CSCCN1"
measurement = 12779197


Kindly give each listed record's TIC value of compound, 15 min, R1.
1. O=C1C[C@H]2CCCN2C(=O)[C@H](Cc2ccccc2)NC(=O)[C@@H](NC(=O)c2ccc(Cl)s2)CCSC/C=C/CSCCN1
2. O=C1C[C@H]2CCCN2C(=O)[C@H](Cc2ccccc2)NC(=O)[C@@H](NC(=O)c2ccc(Cl)s2)CCCSC/C=C/CSCCN1

[7245055, 6029519]

###

Assay: Metabolic stability in rat liver microsomes (RLMs)
Settings: rat, microsomes, Half Life (min) R2, RLM metabolic stability; replicate R2; 0-60 min
Mark NOT MET for half-life values under 20 min, and MET for everything at or above.

Answered cases to consult:
[[record]]
test_smiles = "O=C1NCCSCc2cccc(n2)CSC[C@H](NC(=O)c2ccc(Cl)s2)C(=O)N[C@@H](CO)C(=O)NCc2ccc1cc2"
classification = "NOT MET"

[[record]]
test_smiles = "O=C1CC2CCN(CC2)C(=O)[C@H](Cc2ccccc2)NC(=O)[C@@H](NC(=O)c2ccc(Cl)s2)CSCCS(=O)(=O)CCSCCN1"
classification = "NOT MET"

[[record]]
test_smiles = "O=C1CC2CCN(CC2)C(=O)[C@H](Cc2ccccc2)NC(=O)[C@@H](NC(=O)c2ccc(Cl)s2)CSCc2cccc(n2)CSCCN1"
classification = "NOT MET"

[[record]]
test_smiles = "O=C1CCSC/C=C/CSCCNC(=O)[C@H](CNC(=O)c2ccc(Cl)s2)NC(=O)[C@H](Cc2ccccn2)N1"
classification = "NOT MET"

[[record]]
test_smiles = "CC(C)[C@@H]1NC(=O)[C@@H](NC(=O)c2ccc(Cl)s2)CNC(=O)CCSCc2cccc(n2)CSCCNC1=O"
classification = "MET"

[[record]]
test_smiles = "O=C1CCSCc2ccc(cc2)CSCCNC(=O)[C@H](CNC(=O)c2ccc(Cl)s2)NC(=O)[C@H](Cc2ccccn2)N1"
classification = "MET"


Can CN1CCC(=O)NCCSCCS(=O)(=O)CCSC[C@H](NC(=O)c2ccc(Cl)s2)C(=O)N[C@@H](Cc2ccccc2)C1=O be said to have half-life at or above 20 min? NOT MET

###

Biological target: porcine pepsin (Sus scrofa, UniProt P00791)
Construct: 0.32 g of porcine pepsin (Sigma-Aldrich, P7125) was dissolved under gentle agitation; purchased Sigma-Aldrich P7125
Sequence (P00791 60-385): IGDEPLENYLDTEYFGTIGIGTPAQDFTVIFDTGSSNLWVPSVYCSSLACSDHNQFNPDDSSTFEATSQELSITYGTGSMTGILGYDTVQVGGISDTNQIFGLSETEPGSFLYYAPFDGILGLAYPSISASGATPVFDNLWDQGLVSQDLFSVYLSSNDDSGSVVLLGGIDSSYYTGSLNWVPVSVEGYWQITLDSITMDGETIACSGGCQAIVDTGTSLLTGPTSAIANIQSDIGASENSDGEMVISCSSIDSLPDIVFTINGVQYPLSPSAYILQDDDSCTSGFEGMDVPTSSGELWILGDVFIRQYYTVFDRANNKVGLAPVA
Test: Peptide stability in simulated gastric fluid (SGF)
Assay type: in vitro ADME
Details: after 8 h vs 0 h (TIC); average of R1-R3
Hi there, I'd appreciate the recorded SGF stability, Residual peptide Average for every entry that follows.
Answers are plain numbers.

[[record]]
molecule = "O=C1CCSCc2cccc(n2)CSCCNC(=O)C2CN(C(=O)c3ccc(Cl)s3)CCN2C(=O)[C@H](CO)N1 (stereo partly drawn) [compound 24]"
measurement = 99.25

[[record]]
molecule = "C[C@@H]1NC(=O)[C@@H](NC(=O)c2ccc(Cl)s2)CSCc2cccc(n2)CSCCNC(=O)c2ccc(cc2)CNC1=O [compound 26]"
measurement = 97.08


Identify SGF stability, Residual peptide Average associated with the molecule O=C1C[C@H]2CCCN2C(=O)[C@H](Cc2ccccc2)NC(=O)[C@@H](NC(=O)c2ccc(Cl)s2)CCCSCc2cccc(n2)CSCCN1 [compound 35] 98.71

###

Hi there, I'd appreciate the recorded half-life for every entry that follows.
Experiment: Metabolic stability in rat liver microsomes (RLMs)
Conditions: rat, microsomes, Half Life (min), R3, RLM metabolic stability, replicate R3
Give bare numbers, in min.

Kindly give each listed record's half-life.
1. O=C1C[C@H]2CCCN2C(=O)[C@H](Cc2ccccc2)NC(=O)[C@@H](NC(=O)c2ccc(Cl)s2)CCCSC/C=C/CSCCN1 [compound 36]
2. O=C1CSCCC[C@H](NC(=O)c2ccc(Cl)s2)C(=O)N[C@@H](Cc2ccccc2)C(=O)N2CCC[C@@H]2CC(=O)NCCSC1 [compound 37]

20
12.9

###

Hi there, I'd appreciate the recorded SGF stability, Residual peptide Average for every entry that follows.
Target: porcine pepsin (Sus scrofa)
Construct: 0.32 g of porcine pepsin (Sigma-Aldrich, P7125) was dissolved under gentle agitation; purchased Sigma-Aldrich P7125
Assay: Peptide stability in simulated gastric fluid (SGF)
Type: in vitro ADME
Conditions: after 8 h vs 0 h (TIC); average of R1-R3
Answers are plain numbers.

[[record]]
test_smiles = "O=C1NCCSCc2cccc(n2)CSC[C@H](NC(=O)c2ccc(Cl)s2)C(=O)N[C@@H](CO)C(=O)NCc2ccc1cc2"
measurement = 101.05

[[record]]
test_smiles = "O=C1C[C@H]2CCCN2C(=O)[C@H](Cc2ccccc2)NC(=O)[C@@H](NC(=O)c2ccc(Cl)s2)CCSCc2cccc(n2)CSCCN1"
measurement = 94.64


Look up and report SGF stability, Residual peptide Average, with porcine pepsin (Sus scrofa) as system, for O=C1CCSC/C=C/CSCCNC(=O)[C@H](CNC(=O)c2ccc(Cl)s2)NC(=O)[C@H](Cc2ccccn2)N1 96.43

###

Experiment: in vivo
Conditions: male, Wistar Han, rat, po
Experimental: Male Wistar Han rats (250–350 g) obtained at an age of 9–10 weeks from Charles River Laboratories were used for the studies and kept in housing groups of two or three. Experiments were performed at the age of 10–11 weeks. Intravenous (i.v.) administrations were carried out using tail vein injections. […] Dried residues were dissolved in 20 μl of a water:acetonitrile (7:3) (v/v) solution, centrifuged at 14,000g for 5 min and analyzed by LC–MS. […]
measured_parameter: Tmax (min)
Numbers only, in min.

Identify Tmax associated with the compound O=C1C[C@H]2CCCN2C(=O)[C@H](Cc2ccccc2)NC(=O)[C@@H](NC(=O)c2ccc(Cl)s2)CCC=CCCCCN1 [peptide 43] 30

###

Experiment: Metabolic stability in rat liver microsomes (RLMs)
Details: rat, rat liver microsomes, pH 7.4, Metabolic stability: RLM CL (ul/min/mg), RLMs; mean and SD, three measurements
Square brackets hold non-standard residues; d marks the D form. Peptide text beside a SMILES is read from it. NMeY = CN[C@@H](Cc1ccc(O)cc1)C(=O)O; NMeL = CN[C@@H](CC(C)C)C(=O)O; dNMeL = CN[C@H](CC(C)C)C(=O)O
measured_parameter: microsomal CLint at 10 μM (µL/min/mg)
Give bare numbers, in µL/min/mg.

[[record]]
compound = "COc1ccc([C@@H]2Sc3ccccc3N(CCN(C)C)C(=O)[C@@H]2OC(C)=O)cc1 [Diltiazem, diltiazem, reference compound]"
measurement = 104


The record that follows has no microsomal CLint at 10 μM shown yet.
Identify microsomal CLint at 10 μM associated with the compound CC(C)C[C@@H]1NC(=O)[C@H](Cc2ccc(O)cc2)N(C)C(=O)[C@H]2CCCN2C(=O)[C@H](CC(C)C)NC(=O)[C@H](CC(C)C)N(C)C(=O)[C@@H](CC(C)C)N(C)C1=O [1NMe3, reference compound] (cyclo(L[dNMeL][NMeL]L[dP][NMeY])) 7.6

###

Molecular target: human α-thrombin (Homo sapiens, UniProt P00734)
Experiment: Protease inhibition, Ki for human α-thrombin (fluorogenic substrate Z-Gly-Gly-Arg-AMC)
Assay type: biochemical
Settings: human alpha thrombin; average of R1-R3; read-out: Ki Average, human alpha thrombin inhibition
Hi there, I'd appreciate the recorded Ki for every entry that follows.
One number for each entry, in nM.

Here are 2 compounds together with their reported answers.
[[record]]
test_smiles = "O=C1C[C@H]2CCCN2C(=O)[C@H](Cc2ccccc2)NC(=O)[C@@H](NC(=O)c2ccc(Cl)s2)CCCSC/C=C/CSCCN1"
measurement = 286

[[record]]
test_smiles = "O=C1C[C@H]2CCCN2C(=O)[C@H](Cc2ccccc2)NC(=O)[C@@H](NC(=O)c2ccc(Cl)s2)CCCSCc2cccc(n2)CSCCN1"
measurement = 62.8


The record that follows has no Ki shown yet.
Look up and report Ki, with human α-thrombin (Homo sapiens, UniProt P00734) as system, for O=C1C[C@H]2CCCN2C(=O)[C@H](Cc2ccccc2)NC(=O)[C@@H](NC(=O)c2ccc(Cl)s2)CSCc2cccc(n2)CSCCN1 608
